assayedSystem: Peroxisome proliferator-activated receptor alpha (Homo sapiens)
assay: Agonist activity at human PPARalpha ligand binding domain expressed in african green monkey CV1 cells co-transfected with fused Gal4-DBD by transactivation assay
quantityMeasured: EC50 (µM)

A = CCO[C@@H](Cc1cccc(C2=NOC(c3ccc(I)cc3)C2)c1)C(=O)O (some centres undefined)
B = CCO[C@@H](Cc1cccc(C2=NOC(c3ccc(C(C)(C)C)cc3)C2)c1)C(=O)O (some centres undefined)
C = CCO[C@@H](Cc1cccc(/C(C)=N/OCc2ccc(O)cc2)c1)C(=O)O
Kindly sort the 3 compounds above from the smallest to the largest EC50. Answer by naming the labels in the order asked.
A, B, C

---

assayedSystem: Peroxisome proliferator-activated receptor gamma (Homo sapiens)
quantityMeasured: EC50 (nM)

These recorded examples may help you get a feel for the data.
The observed EC50 for CCO[C@@H](Cc1cccc(/C(C)=N/OCc2ccc(C(C)(C)C)cc2)c1)C(=O)O when tested with Peroxisome proliferator-activated receptor gamma (Homo sapiens) stands at 279

I looked up CCO[C@@H](Cc1cccc(C2=NOC(c3ccc(Br)cc3)C2)c1)C(=O)O (stereo partly specified) and its EC50 for Peroxisome proliferator-activated receptor gamma (Homo sapiens) was 740

Per the reported Peroxisome proliferator-activated receptor gamma (Homo sapiens) data, CCO[C@@H](Cc1cccc(C2=NOC(Cc3ccccc3)C2)c1)C(=O)O (stereo partly specified) has EC50 of 6930

EC50 for Peroxisome proliferator-activated receptor gamma (Homo sapiens) with input CCO[C@@H](Cc1cccc(/C(C)=N/OCc2ccc(OS(C)(=O)=O)cc2)c1)C(=O)O equals 1610

# lookup: CCO[C@@H](Cc1cccc(C2=NOC(c3ccc(OS(C)(=O)=O)cc3)C2)c1)C(=O)O (stereo partly specified) on Peroxisome proliferator-activated receptor gamma (Homo sapiens), EC50 = 28100

The recorded EC50 with Peroxisome proliferator-activated receptor gamma (Homo sapiens) for CCO[C@@H](Cc1cccc(/C(C)=N/OCc2ccc(F)cc2)c1)C(=O)O was 139

A = CCO[C@H](Cc1cccc(C2=NOC(Cc3ccccc3)C2)c1)C(=O)O (stereo partly specified)
B = CCO[C@H](Cc1cccc(/C(C)=N/OCc2ccccc2)c1)C(=O)O
Between A and B , whose recorded EC50 is greater? Give the chosen item's label as your response.
A
(A: 41400 nM, B: 1890 nM)

---

Entries with their measured EC50, system Peroxisome proliferator-activated receptor gamma (Homo sapiens):
quantityMeasured: EC50 (nM)

For CCO[C@@H](Cc1cccc(/C(C)=N/OCc2cccc(Cl)c2)c1)C(=O)O the compound record lists EC50 as 10

P = CCO[C@@H](Cc1cccc(/C(C)=N/OCc2ccccc2Cl)c1)C(=O)O
Q = CCO[C@@H](Cc1cccc(C2=NOC(c3ccc(C(C)(C)C)cc3)C2)c1)C(=O)O (stereo partly drawn)
Problem: Given the entries P and Q , determine which has the lower reported EC50. Indicate your choice by writing its label.
P
(P: 26 nM, Q: 2730 nM)

---

assayedSystem: Peroxisome proliferator-activated receptor alpha (Homo sapiens)
assay: Agonist activity at human PPARalpha ligand binding domain expressed in african green monkey CV1 cells co-transfected with fused Gal4-DBD by transactivation assay relative to gemfibrozil
Assay type: cell-based
appliedConditions: CV-1
quantityMeasured: Emax (%)

Worked examples follow.
Reported Emax ( CCO[C@@H](Cc1cccc(C2=NOC(c3ccc(OS(C)(=O)=O)cc3)C2)c1)C(=O)O (stereo not given in full) ) = 107

Measured Emax, CCO[C@@H](Cc1cccc(-c2cc(-c3ccccc3)on2)c1)C(=O)O : 162

A = CCO[C@@H](Cc1cccc(/C(C)=N/OCc2ccc(Br)cc2)c1)C(=O)O
B = CCO[C@@H](Cc1cccc(C2=NOC(c3ccc(O)cc3)C2)c1)C(=O)O (stereo not given in full)
C = CCO[C@H](Cc1cccc(C2=NOC(CCc3ccccc3)C2)c1)C(=O)O (stereo not given in full)
Ordering: ascending Emax. State the ranking by listing the labels in the requested order.
B, A, C

---

assayedSystem: Peroxisome proliferator-activated receptor gamma (Homo sapiens)
quantityMeasured: EC50 (nM)

The examples below pair each entry with its known result.
CCO[C@H](Cc1cccc(C2=NOC(CCc3ccccc3)C2)c1)C(=O)O (stereo not given in full) yielded EC50 of 25100

Data point: CCO[C@@H](Cc1cccc(C2=NOC(CCc3ccccc3)C2)c1)C(=O)O (stereo not given in full) ; EC50 = 1850

A = CCO[C@@H](Cc1cccc(/C(C)=N/OCc2ccc(C(F)(F)F)cc2)c1)C(=O)O
B = CCO[C@@H](Cc1cccc(/C(C)=N/OCc2ccc(OC)cc2)c1)C(=O)O
C = CCO[C@@H](Cc1cccc(C2=NOC(c3ccc(O)cc3)C2)c1)C(=O)O (stereo not given in full)
List by increasing EC50. Return the labels ranked in the requested order, please.
A, B, C

---

assayedSystem: Peroxisome proliferator-activated receptor alpha (Homo sapiens)
assay: Agonist activity at human PPARalpha ligand binding domain expressed in african green monkey CV1 cells co-transfected with fused Gal4-DBD by transactivation assay
Format: cell-based, CV-1
pEC50: −log10 of the molar value.
quantityMeasured: pEC50

Reported pEC50 for CCO[C@@H](Cc1cccc(-c2cc(-c3ccccc3)on2)c1)C(=O)O was 5.25

So, CCO[C@@H](Cc1cccc(/C(C)=N/OCc2ccc(C(F)(F)F)cc2)c1)C(=O)O ? Its pEC50 was 5.53

pEC50 reading for CCO[C@@H](Cc1cccc(/C(C)=N/OCc2cccc(Cl)c2)c1)C(=O)O : 5.64

In plain terms, CCO[C@@H](Cc1cccc(/C(C)=N/OCc2ccccc2)c1)C(=O)O has a documented pEC50 of 5.54

I = CCO[C@@H](Cc1cccc(/C(C)=N/OCc2ccccc2Cl)c1)C(=O)O
II = CCO[C@@H](Cc1cccc(C2=NOC(c3ccc(Cl)cc3)C2)c1)C(=O)O (stereo not given in full)
Given the listed items, does I or II have the lesser reported pEC50? Write down the label attached to your selection.
II

1 = CCO[C@@H](Cc1cccc(C2=NOC(c3ccc(OS(C)(=O)=O)cc3)C2)c1)C(=O)O (stereo not given in full)
2 = CCO[C@@H](Cc1cccc(C2=NOC(CCc3ccccc3)C2)c1)C(=O)O (stereo not given in full)
3 = CCO[C@@H](Cc1cccc(/C(C)=N/OCc2ccc(C(C)(C)C)cc2)c1)C(=O)O
Ascending by pEC50, please. Write the labels in rank order as requested.
1, 3, 2
(1: 4.43, 3: 4.92, 2: 5.51)

---

assayedSystem: Peroxisome proliferator-activated receptor alpha (Homo sapiens) (UniProt Q07869)
Sequence (Q07869 whole entry, the tested form may be a part): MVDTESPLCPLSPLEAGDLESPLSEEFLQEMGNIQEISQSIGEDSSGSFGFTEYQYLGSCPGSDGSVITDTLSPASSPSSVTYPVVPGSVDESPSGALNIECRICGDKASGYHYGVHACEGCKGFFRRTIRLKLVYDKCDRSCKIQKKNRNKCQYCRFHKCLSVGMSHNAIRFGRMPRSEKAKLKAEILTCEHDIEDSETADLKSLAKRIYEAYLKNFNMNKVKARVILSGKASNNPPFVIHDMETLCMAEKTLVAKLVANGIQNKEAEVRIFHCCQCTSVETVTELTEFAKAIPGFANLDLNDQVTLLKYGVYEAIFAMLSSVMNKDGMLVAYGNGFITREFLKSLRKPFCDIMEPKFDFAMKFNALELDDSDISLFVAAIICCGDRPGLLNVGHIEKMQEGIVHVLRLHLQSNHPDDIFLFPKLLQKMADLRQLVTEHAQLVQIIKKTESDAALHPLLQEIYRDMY
assay: Agonist activity at human PPARalpha ligand binding domain expressed in african green monkey CV1 cells co-transfected with fused Gal4-DBD by transactivation assay relative to gemfibrozil
Type: cell-based
appliedConditions: CV-1
quantityMeasured: Emax (%)

A = CCO[C@@H](Cc1cccc(/C(C)=N/OCc2ccc(Cl)cc2)c1)C(=O)O
B = CN(CCOc1ccc(CC2SC(=O)NC2=O)cc1)c1ccccn1 (stereo unspecified)
C = CCO[C@@H](Cc1cccc(C2=NOC(c3ccc(Cl)cc3)C2)c1)C(=O)O (stereo partly specified)
D = CCO[C@H](Cc1cccc(C2=NOC(Cc3ccccc3)C2)c1)C(=O)O (stereo partly specified)
# rank_down: sort by Emax, max first List the labels according to the requested ordering.
A, C, B, D

---

assayedSystem: Peroxisome proliferator-activated receptor gamma (Homo sapiens)
Sequence (P37231 whole entry): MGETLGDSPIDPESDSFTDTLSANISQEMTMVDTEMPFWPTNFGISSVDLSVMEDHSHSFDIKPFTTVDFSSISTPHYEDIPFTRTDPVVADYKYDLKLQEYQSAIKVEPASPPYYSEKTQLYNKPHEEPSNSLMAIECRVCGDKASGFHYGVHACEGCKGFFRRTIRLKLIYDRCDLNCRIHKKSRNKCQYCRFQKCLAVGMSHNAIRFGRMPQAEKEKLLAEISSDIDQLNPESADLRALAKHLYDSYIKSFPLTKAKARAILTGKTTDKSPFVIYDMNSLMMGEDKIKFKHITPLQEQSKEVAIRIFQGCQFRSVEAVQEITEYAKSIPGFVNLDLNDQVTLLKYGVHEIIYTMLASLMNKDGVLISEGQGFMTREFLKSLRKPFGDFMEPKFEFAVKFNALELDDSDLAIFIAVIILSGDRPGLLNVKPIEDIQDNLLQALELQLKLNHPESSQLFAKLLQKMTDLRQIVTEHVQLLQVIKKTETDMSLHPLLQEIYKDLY
quantityMeasured: EC50 (µM)

These solved cases illustrate the format of a correct answer.
What the record says about CCO[C@@H](Cc1cccc(/C(C)=N/OCc2ccc(O)cc2)c1)C(=O)O : EC50 is 2.94

CCO[C@@H](Cc1cccc(/C(C)=N/OCc2ccccc2)c1)C(=O)O has a reported EC50 of 0.121

Please fill in: EC50 reported for CCO[C@@H](Cc1cccc(C2=NOC(c3ccc(OC)cc3)C2)c1)C(=O)O (stereo partly drawn) = 3.19

Entry CCO[C@@H](Cc1cccc(C2=NOC(c3ccccc3)C2)c1)C(=O)O (stereo partly drawn) ; EC50 = 0.22

Measured EC50 of CCO[C@@H](Cc1cccc(C2=NOC(c3ccc(I)cc3)C2)c1)C(=O)O (stereo partly drawn) : 0.606

In plain terms, CCO[C@@H](Cc1cccc(C2=NOC(c3ccc(F)cc3)C2)c1)C(=O)O (stereo partly drawn) has a documented EC50 of 1.16

Field EC50 (entry CCO[C@@H](Cc1cccc(C2=NOC(c3ccc(Cl)cc3)C2)c1)C(=O)O (stereo partly drawn) ) reads 0.816

The measured EC50 associated with CCO[C@@H](Cc1cccc(/C(C)=N/OCc2ccc(Cl)cc2)c1)C(=O)O reads 0.028

So for CCO[C@@H](Cc1cccc(/C(C)=N/OCc2ccc(Br)cc2)c1)C(=O)O , the logged EC50 turned out to be 0.036

Record summary for CCO[C@H](Cc1cccc(C2=NOC(c3ccccc3)C2)c1)C(=O)O (stereo partly drawn) : reported EC50 = 25.4

a = CCO[C@H](Cc1cccc(-c2cc(-c3ccccc3)on2)c1)C(=O)O
b = CCO[C@@H](Cc1cccc(/C(C)=N/OCc2ccc(I)cc2)c1)C(=O)O
c = CCO[C@@H](Cc1cccc(-c2cc(-c3ccccc3)on2)c1)C(=O)O
Please list these compounds in decreasing order of EC50. Answer by listing the labels in the requested order.
a, c, b
(a: 37.4 µM, c: 3.29 µM, b: 0.04 µM)
